Species: Homo sapiens
Test: Selectivity ratio of Ki for human 5HT3A receptor to Ki for human 5HT4C receptor
Entries and their Ratio Ki
Observable: Ratio Ki

CC(C)n1c(=O)c(C(=O)N[C@H]2C[C@H]3CC[C@@H](C2)N3CCCCCN(C)CCc2c[nH]c3ccccc23)cc2ccccc21	6000
CC(C)n1c(=O)c(C(=O)N[C@H]2C[C@H]3CC[C@@H](C2)N3CCCCCCCCN2CCN(S(C)(=O)=O)CC2)cc2ccccc21	2100
COc1cc(N)c(Cl)cc1C(=O)NC1CCN(CCCCCCCCN2C(=O)c3ccccc3C2=O)CC1	40
CC(C)n1c(=O)c(C(=O)N[C@H]2C[C@H]3CC[C@@H](C2)N3CCCCCCCN2CCC(CNS(C)(=O)=O)CC2)cc2ccccc21	3100
CC(C)n1c(=O)c(C(=O)N[C@H]2C[C@H]3CC[C@@H](C2)N3CCN2CCCCC2)cc2ccccc21	720
CC(C)n1c(=O)n(C(=O)NCCN2CCNCC2)c2ccccc21	1
CC(C)n1c(=O)c(C(=O)N[C@H]2C[C@H]3CC[C@@H](C2)N3CCO)cc2ccccc21	3.2
COc1cc(N)c(Cl)cc1C(=O)NC1CCN(CCN(C)CCc2c[nH]c3ccccc23)CC1	290
CC(C)n1c(=O)c(C(=O)N[C@H]2C[C@H]3CC[C@@H](C2)N3C[C@H](O)CN2CCN(S(C)(=O)=O)CC2)cc2ccccc21	1300
COc1cc(N)c(Cl)cc1C(=O)NC1CCN(CCS(=O)(=O)O)CC1	1.5
CC(C)n1c(=O)c(C(=O)N[C@H]2C[C@H]3CC[C@@H](C2)N3CCCCCCCN(C)CCCN(C)S(C)(=O)=O)cc2ccccc21	6500
COc1ccc2[nH]cc(C(=O)NC3CCNCC3)c2c1	6.7
CC(C)n1c(=O)c(C(=O)N[C@H]2C[C@H]3CC[C@@H](C2)N3CCCN2CCC[C@@H]2C(N)=O)cc2ccccc21	1500
COc1cc(N)c(Cl)cc1C(=O)NC1CCN(CCCCCCCCN(C)CCc2c[nH]c3ccccc23)CC1	2800
CC(C)n1c(=O)c(C(=O)N[C@H]2C[C@H]3CC[C@@H](C2)N3CCCCCCCCO)cc2ccccc21	1100
CC(C)n1c(=O)c(C(=O)N[C@H]2C[C@H]3CC[C@@H](C2)N3CCCCCO)cc2ccccc21	460

###

Target: 5-hydroxytryptamine receptor 4 (Homo sapiens, UniProt Q13639)
Sequence (Q13639 whole entry): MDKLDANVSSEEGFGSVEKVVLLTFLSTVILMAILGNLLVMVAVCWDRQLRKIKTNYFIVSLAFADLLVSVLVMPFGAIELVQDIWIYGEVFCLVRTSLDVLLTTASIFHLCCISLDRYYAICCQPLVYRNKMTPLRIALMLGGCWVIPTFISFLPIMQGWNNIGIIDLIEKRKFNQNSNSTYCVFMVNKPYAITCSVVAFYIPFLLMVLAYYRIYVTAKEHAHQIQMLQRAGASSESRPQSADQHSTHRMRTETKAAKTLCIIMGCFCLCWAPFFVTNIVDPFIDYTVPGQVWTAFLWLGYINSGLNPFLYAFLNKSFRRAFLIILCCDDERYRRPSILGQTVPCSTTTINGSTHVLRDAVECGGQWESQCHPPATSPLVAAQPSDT
Test: Agonist activity at human 5HT4C receptor expressed in HEK293 cells assessed as accumulation of cAMP by flash plate adenylyl cyclase activation assay
Item-by-item account of EC50
Observable: EC50 (nM)

CCN1CCC(NC(=O)c2cc(Cl)c(N)cc2OC)CC1	79.4
CC(C)n1c(=O)c(C(=O)N[C@H]2C[C@H]3CC[C@@H](C2)N3CCCCCN2CCN(S(C)(=O)=O)CC2)cc2ccccc21	1.26
COc1cc(N)c(Cl)cc1C(=O)NC1CCN(CCCCCN2CCCCC2)CC1	5.01
CC(C)n1c(=O)c(C(=O)N[C@H]2C[C@H]3CC[C@@H](C2)N3C[C@H](O)CN2CCN(S(C)(=O)=O)CC2)cc2ccccc21	1.26
CC(C)n1c(=O)c(C(=O)N[C@H]2C[C@H]3CC[C@@H](C2)N3CCO)cc2ccccc21	31.6

###

Overview of reported Papp across a group of molecules:
Assay: Permeability across human Caco-2 cells assessed as permeability coefficient
Format: ADME, cell-based
Settings: read-out: permeability
Observable: Papp (×10⁻⁶ cm/s)

CC(C)n1c(=O)c(C(=O)N[C@H]2C[C@H]3CC[C@@H](C2)N3CCCCCCCN2CCOCC2)cc2ccccc21	28
CC(C)n1c(=O)c(C(=O)N[C@H]2C[C@H]3CC[C@@H](C2)N3CCCCCCCN2CCCCC2)cc2ccccc21	23
CC(C)n1c(=O)c(C(=O)N[C@H]2C[C@H]3CC[C@@H](C2)N3CCCN2CCC(CNS(C)(=O)=O)CC2)cc2ccccc21	3
CC(C)n1c(=O)c(C(=O)N[C@H]2C[C@H]3CC[C@@H](C2)N3CCCCCCCN(C)CCCN(C)S(C)(=O)=O)cc2ccccc21	3

###

Assay: AUC (0 to t) in Sprague-Dawley rat at 5 mg/kg, po
Assay type: ADME, organism-based
Parameters: dose 5 mg/kg, route oral
Conditions: plasma
Observable: AUC(0-t) (ng·h/mL)

CC(C)n1c(=O)c(C(=O)N[C@H]2C[C@H]3CC[C@@H](C2)N3CCCN2CCN(S(C)(=O)=O)CC2)cc2ccccc21	183
CC(C)n1c(=O)c(C(=O)N[C@H]2C[C@H]3CC[C@@H](C2)N3C[C@@H](O)CN2CCN(S(C)(=O)=O)CC2)cc2ccccc21	200
CCCCCNC(=N)N/N=C/c1c[nH]c2ccc(OC)cc12	21
CC(C)n1c(=O)c(C(=O)N[C@H]2C[C@H]3CC[C@@H](C2)N3CCCCCCCN2CCN(S(C)(=O)=O)CC2)cc2ccccc21	83

###

Entries annotated with measured log10 EC50
Target: 5-hydroxytryptamine receptor 4 (Homo sapiens)
Assay: Agonist activity at human 5HT4C receptor expressed in HEK293 cells assessed as accumulation of cAMP by flash plate adenylyl cyclase activation assay
Observable: log10 EC50 (log10 of the value in nM)

COc1cc(N)c(Cl)cc1C(=O)NC1CCN(CCN(C)CCc2c[nH]c3ccccc23)CC1	1.20
COc1cc(N)c(Cl)cc1C(=O)NC1CCN(CCCCCS(=O)(=O)O)CC1	2.60
CC(C)n1c(=O)c(C(=O)N[C@H]2C[C@H]3CC[C@@H](C2)N3CCN(C)CCc2c[nH]c3ccccc23)cc2ccccc21	0.10
CC(C)n1c(=O)c(C(=O)N[C@H]2C[C@H]3CC[C@@H](C2)N3)cc2ccccc21	1.10
COc1cc(N)c(Cl)cc1C(=O)NC1CCN(CCCCCO)CC1	1.20
CC(C)n1c(=O)c(C(=O)N[C@H]2C[C@H]3CC[C@@H](C2)N3CCCCCCCN2CCC[C@@H]2C(N)=O)cc2ccccc21	-0.40
CC(C)n1c(=O)c(C(=O)N[C@H]2C[C@H]3CC[C@@H](C2)N3CCCCCCCCN2CCN(S(C)(=O)=O)CC2)cc2ccccc21	0.50
COc1cc(N)c(Cl)cc1C(=O)N[C@H]1C[C@H]2CC[C@@H](C1)N2	2.00

###

// reported half-life for each item listed
Assay: Half life in Sprague-Dawley rat at 5 mg/kg, po
Type: ADME, organism-based
Design: dose 5 mg/kg, route oral
Details: in vivo
Observable: half-life (h)

CC(C)n1c(=O)c(C(=O)N[C@H]2C[C@H]3CC[C@@H](C2)N3CCCN2CCN(S(C)(=O)=O)CC2)cc2ccccc21	7.9
CC(C)n1c(=O)c(C(=O)N[C@H]2C[C@H]3CC[C@@H](C2)N3CCCCCCCN2CCN(S(C)(=O)=O)CC2)cc2ccccc21	20.3
CCCCCNC(=N)N/N=C/c1c[nH]c2ccc(OC)cc12	1.8
CC(C)n1c(=O)c(C(=O)N[C@H]2C[C@H]3CC[C@@H](C2)N3C[C@@H](O)CN2CCN(S(C)(=O)=O)CC2)cc2ccccc21	5.2

###

Experiment: Permeability across human Caco-2 cells assessed as permeability coefficient
Type: ADME, cell-based
Settings: read-out: permeability
Observable: Papp (×10⁻⁶ cm/s)

CC(C)n1c(=O)c(C(=O)N[C@H]2C[C@H]3CC[C@@H](C2)N3CC(O)CN2CCN(S(C)(=O)=O)CC2)cc2ccccc21 (mixture of isomers)	19
CCCCCNC(=N)N/N=C/c1c[nH]c2ccc(OC)cc12	11
CCOC(=O)N1CCN(CCCCCCCN2[C@@H]3CC[C@H]2C[C@@H](NC(=O)c2cc4ccccc4n(C(C)C)c2=O)C3)CC1	14
CC(C)n1c(=O)c(C(=O)N[C@H]2C[C@H]3CC[C@@H](C2)N3CCCCCCCN2CCC[C@@H]2C(N)=O)cc2ccccc21	9
CC(C)n1c(=O)c(C(=O)N[C@H]2C[C@H]3CC[C@@H](C2)N3CCCCCCCN2CCN(c3ccccc3)CC2)cc2ccccc21	20
CC(C)n1c(=O)c(C(=O)N[C@H]2C[C@H]3CC[C@@H](C2)N3CCCN2CCCCC2)cc2ccccc21	24
CC(C)n1c(=O)c(C(=O)N[C@H]2C[C@H]3CC[C@@H](C2)N3CCCN2CCN(S(C)(=O)=O)CC2)cc2ccccc21	20
CC(C)n1c(=O)c(C(=O)N[C@H]2C[C@H]3CC[C@@H](C2)N3CCCN(C)CCCN(C)S(C)(=O)=O)cc2ccccc21	4
CC(C)n1c(=O)c(C(=O)N[C@H]2C[C@H]3CC[C@@H](C2)N3CCCCCCCN2CCN(S(C)(=O)=O)CC2)cc2ccccc21	22

###

In this section, each of the compounds is paired with its reported Ratio Ki.
Species on record: Homo sapiens
Assay: Selectivity ratio of Ki for human 5HT3A receptor to Ki for human 5HT4C receptor
Observable: Ratio Ki

COc1cc(N)c(Cl)cc1C(=O)NC1CCN(CCCCCO)CC1	110
CC(C)n1c(=O)c(C(=O)N[C@H]2C[C@H]3CC[C@@H](C2)N3CCCN(C)CCCN(C)S(C)(=O)=O)cc2ccccc21	210
CC(C)n1c(=O)c(C(=O)N[C@H]2C[C@H]3CC[C@@H](C2)N3CCCCCCCN2CCN(c3ccccc3)CC2)cc2ccccc21	5300
CC(C)n1c(=O)c(C(=O)N[C@H]2C[C@H]3CC[C@@H](C2)N3CCN2CCN(S(C)(=O)=O)CC2)cc2ccccc21	450
COc1cc(N)c(Cl)cc1C(=O)NC1CCN(CCO)CC1	1.9
COc1cc(N)c(Cl)cc1C(=O)NC1CCN(CCCCCCCCS(=O)(=O)O)CC1	4.3
CC(C)n1c(=O)c(C(=O)N[C@H]2C[C@H]3CC[C@@H](C2)N3CCCCCCCCN2CCCCC2)cc2ccccc21	9900
COc1cc(N)c(Cl)cc1C(=O)NCCN1CCNCC1	1.1
COc1cc(N)c(Cl)cc1C(=O)NC1CCN(CCN2CCN(S(C)(=O)=O)CC2)CC1	21
COc1cc(N)c(Cl)cc1C(=O)NC1CCN(CCCCCN2CCN(S(C)(=O)=O)CC2)CC1	280
COc1cc(N)c(Cl)cc1C(=O)NC1CCNCC1	0.095
CC(C)n1c(=O)c(C(=O)NCC2CCNCC2)cc2ccccc21	1.2
COc1cc(N)c(Cl)cc1C(=O)NC1CCN(CCN2CCCCC2)CC1	3.9
COc1cc(N)c(Cl)cc1C(=O)NC1CCN(CCCCCCCCN2CCCCC2)CC1	2000
COc1cc(N)c(Cl)cc1C(=O)NCC1CCNCC1	0.12
CCOC(=O)N1CCN(CCCCCCCN2[C@@H]3CC[C@H]2C[C@@H](NC(=O)c2cc4ccccc4n(C(C)C)c2=O)C3)CC1	810
COc1cc(N)c(Cl)cc1C(=O)NC1CCN(CCCCCN2C(=O)c3ccccc3C2=O)CC1	120
COc1cc(N)c(Cl)cc1C(=O)N[C@H]1C[C@H]2CC[C@@H](C1)N2	0.2
COc1cc(N)c(Cl)cc1C(=O)NC1CCN(CCCCCN(C)CCc2c[nH]c3ccccc23)CC1	12000
CC(C)n1c(=O)c(C(=O)N[C@H]2C[C@H]3CC[C@@H](C2)N3CCCCCCCN2CCOCC2)cc2ccccc21	1600
CCOC(=O)N1CCN(CCCN2[C@@H]3CC[C@H]2C[C@@H](NC(=O)c2cc4ccccc4n(C(C)C)c2=O)C3)CC1	1300
CCCCCN1CCC(NC(=O)c2cc(Cl)c(N)cc2OC)CC1	33
CC(C)n1c(=O)n(C(=O)NC2CCNCC2)c2ccccc21	0.019
CC(C)n1c(=O)n(C(=O)NCC2CCNCC2)c2ccccc21	0.21
CC(C)n1nc(C(=O)NC2CCNCC2)c2ccccc21	0.52
CC(C)n1c(=O)c(C(=O)N[C@H]2C[C@H]3CC[C@@H](C2)N3CCCCCCCCS(=O)(=O)O)cc2ccccc21	230
CC(C)n1c(=O)c(C(=O)N[C@H]2C[C@H]3CC[C@@H](C2)N3CCN2C(=O)c3ccccc3C2=O)cc2ccccc21	55
CCN1[C@@H]2CC[C@H]1C[C@@H](NC(=O)c1cc3ccccc3n(C(C)C)c1=O)C2	19
CC(C)n1c(=O)n(C(=O)N[C@H]2C[C@H]3CC[C@@H](C2)N3)c2ccccc21	0.013
CC(C)n1c(=O)c(C(=O)N[C@H]2C[C@H]3CC[C@@H](C2)N3CCS(=O)(=O)O)cc2ccccc21	49
COc1cc(N)c(Cl)cc1C(=O)NC1CCN(CCCCCCCCN2CCN(S(C)(=O)=O)CC2)CC1	330
CCCCCCCCN1[C@@H]2CC[C@H]1C[C@@H](NC(=O)c1cc3ccccc3n(C(C)C)c1=O)C2	150
CC(C)n1nc(C(=O)NCC2CCNCC2)c2ccccc21	3
CCCCCCCCN1CCC(NC(=O)c2cc(Cl)c(N)cc2OC)CC1	23
COc1ccc2[nH]cc(C(=O)N[C@H]3C[C@H]4CC[C@@H](C3)N4)c2c1	1.4
CCCCCN1[C@@H]2CC[C@H]1C[C@@H](NC(=O)c1cc3ccccc3n(C(C)C)c1=O)C2	890
COc1cc(N)c(Cl)cc1C(=O)NC1CCN(CCCCCN2CCCCC2)CC1	990
